target: Solute carrier family 2, facilitated glucose transporter member 1 (Homo sapiens) (UniProt P11166); experiment: ST_JUDE_LEISH: Cytotoxicity at 2uM final concentration against transgenic Leishmania Mexicana promastigotes LmGLUT1 that are glucose transport deficient and complemented with the human glucose transporter GLUT1. Activity is measured by DNA content using SYBR green in vitro; assay type: functional
Sequence (P11166 whole entry): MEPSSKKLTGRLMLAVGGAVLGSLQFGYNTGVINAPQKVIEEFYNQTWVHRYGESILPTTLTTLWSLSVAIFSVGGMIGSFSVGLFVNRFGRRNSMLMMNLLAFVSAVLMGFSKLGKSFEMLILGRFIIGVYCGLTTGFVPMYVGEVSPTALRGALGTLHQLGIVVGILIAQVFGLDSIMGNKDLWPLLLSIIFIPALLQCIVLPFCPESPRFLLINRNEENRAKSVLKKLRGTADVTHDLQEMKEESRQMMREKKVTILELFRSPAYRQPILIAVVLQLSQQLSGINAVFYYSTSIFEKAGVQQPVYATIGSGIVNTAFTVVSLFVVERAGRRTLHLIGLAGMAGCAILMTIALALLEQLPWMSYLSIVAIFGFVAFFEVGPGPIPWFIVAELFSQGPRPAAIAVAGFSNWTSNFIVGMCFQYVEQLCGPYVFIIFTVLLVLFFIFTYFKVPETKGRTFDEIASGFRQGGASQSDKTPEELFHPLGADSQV
MEASURE: inhibition (%)
Express it in %; write the number only.

Here are 5 molecules together with their reported answers.
CCc1ccccc1NC(=O)CN1CCN(c2ncnc3scc(-c4ccc(F)cc4)c23)CC1 | 1.81
CN(C(=O)Nc1ccc(C(F)(F)F)cc1)C1CCN(CCCCCNC(=O)/C=C/c2ccc(Cl)c(Cl)c2)CC1 | 4.18
O=C1OC2(CN1CC1CCN(Cc3ccc(O)cc3Cl)C1)c1ccccc1-c1ccccc12 (centres undefined) | 0.5
Cc1ccccc1C1CCN(C2CCC(NC(=O)/C=C/c3c[nH]c4ccccc34)CC2)CC1 (centres undefined) | 2.31
COc1ccc(C2CCN(CCCCNC(=O)c3ccc(NC(=O)c4ccc(Cl)cc4)cc3)C2)c(OC)c1 (centres undefined) | -0.08

Bench note: what inhibition did `Cc1cc(=O)c(-c2ccc(Oc3ccc(Cl)cc3Cl)cc2)c(C)[nH]1` show? 2.15

Bench note: what inhibition did `Cc1[nH]c(C)c(-c2ccc(OCc3ccc(OC(F)(F)F)cc3)nc2)c(=O)c1Cl` show? 13.3

Bench note: what inhibition did `Nc1ncc(-c2ccc(Br)cc2)c(N)n1` show? 1.2

====

molecular target: Solute carrier family 2, facilitated glucose transporter member 1 (Homo sapiens) (UniProt P11166); experiment: ST_JUDE_LEISH: Cytotoxicity at 2uM final concentration against transgenic Leishmania Mexicana promastigotes LmGLUT1 that are glucose transport deficient and complemented with the human glucose transporter GLUT1. Activity is measured by DNA content using SYBR green in vitro; format: functional
MEASURE: inhibition (%)
Express it in %; write the number only.

Oc1ccc(CCNc2nc(NCCCOc3ccccc3-c3cccnc3)nc(N3CCNCC3)n2)cc1 | 5.04

Bench note: what inhibition did COc1ccc(CC(=O)NC(CCN2CCC3(CC2)CN(S(C)(=O)=O)c2ccccc23)c2ccc(Cl)c(Cl)c2)cc1OC (centres undefined) show? 3.24

Bench note: what inhibition did `O=C(Nc1cccc(CN2CCN(Cc3ccc(O)cc3)CC2)c1)c1ccc(-c2ccccc2)cc1` show? 4.37

Bench note: what inhibition did `COc1ccc2nccc([C@@H](O)CN3CCC(NCc4cc5cccc6c5n(c4=O)CCC6)CC3)c2c1` show? 2.12

Bench note: what inhibition did Cc1nc(-c2cccc(C(=O)NC3CCC(CCN4CCc5ccc(-c6cccnc6)cc5CC4)CC3)c2)no1 (centres undefined) show? 11.5

Bench note: what inhibition did `Clc1ccc2c(NN=Cc3ccco3)ccnc2c1` show? 3.59

Bench note: what inhibition did `Cc1cc2nc(N/C(N)=N/C(=O)NC3CCCCC3)nc(C)c2cc1C` show? 3.18

Bench note: what inhibition did `NC1CCN(c2nc(NCCCc3ccc(O)cc3)nc(NCc3ccccc3-c3ccc(C(F)(F)F)cc3)n2)CC1` show? 1.49

Bench note: what inhibition did `COc1ccc(CCc2ccc(-c3c(C)[nH]c(C)c(Cl)c3=O)cc2)cc1` show? 2.55

Bench note: what inhibition did `COc1ccc(CNCc2ccc(F)cc2)cc1-c1ccc(OC)c(S(=O)(=O)NCCN2CCCC2)c1` show? 5.21

Bench note: what inhibition did COC(=O)CCn1c(C2CCN(CC3CCC(NC(=O)/C=C/c4ccc(Cl)c(Cl)c4)CC3)CC2)nc2ccccc21 (centres undefined) show? 0.97

Bench note: what inhibition did `Cc1cc(F)ccc1-c1nc(NCCCNCCc2ccccc2)nc2c1ccc(=O)n2-c1c(F)cccc1F` show? 0.55

Bench note: what inhibition did `CCOc1cc(C(=O)NCc2ccc(Cl)c(Cl)c2)ccc1-c1nc2cc(Cl)ccc2[nH]1` show? -0.85

Bench note: what inhibition did `Cc1ccc(NC(=O)N2CCC(n3c(-c4ccccc4)nc4cccnc43)CC2)cc1F` show? 6.53

Bench note: what inhibition did Nc1c(Cl)cc(C(O)CNCCCCCCOCCC=C2CCOCC2)cc1Cl (centres undefined) show? -0.91

Bench note: what inhibition did `COc1cc(NC(=O)/C=C/c2cc(F)cc(F)c2F)cc(OCCN2CCN(CCN3CCOCC3)CC2)c1` show? 3.46

Bench note: what inhibition did `CS(=O)(=O)c1ccc(-c2cncc(Nc3cccc([N+](=O)[O-])c3)c2)cc1` show? 7.42

Bench note: what inhibition did `CN(C)Cc1ccc(-c2cc3ncnc(Nc4ccc(OCc5cccc(F)c5)c(Cl)c4)c3s2)[nH]1` show? 3.19

Bench note: what inhibition did Cc1cc(NC2CCN(CC3CCCCC3)C2)nc(Nc2ccc(Cl)cc2)n1 (centres undefined) show? 3.89

====

target: Solute carrier family 2, facilitated glucose transporter member 1 (Homo sapiens) (UniProt P11166); experiment: ST_JUDE_LEISH: Cytotoxicity at 2uM final concentration against transgenic Leishmania Mexicana promastigotes LmGLUT1 that are glucose transport deficient and complemented with the human glucose transporter GLUT1. Activity is measured by DNA content using SYBR green in vitro; type: functional
Below, each of the molecules is paired with its reported inhibition value.
Express it in %; write the number only.

Here are 2 molecules together with their reported answers.
Nc1ccn([C@@H]2O[C@H](COC(c3ccccc3)(c3ccccc3)c3ccccc3)[C@@H](O)[C@@H]2O)c(=O)n1 | 3.1
CC(=O)Nc1nc(C(=O)Nc2ccc(-c3cccc(-c4nc5cccc(C)c5[nH]4)c3)cc2)cs1 | 8.57

Now for the molecule whose inhibition we want.
Bench note: what inhibition did `O=C(C=Cc1ccc(-c2nc3ccccc3[nH]2)cc1)NC1CCN(Cc2ccccc2)CC1` show? -1.19

====

Below, each of the molecules is paired with its reported inhibition value.
molecular target: Solute carrier family 2, facilitated glucose transporter member 1 (Homo sapiens) (UniProt P11166); assay: ST_JUDE_LEISH: Cytotoxicity at 2uM final concentration against transgenic Leishmania Mexicana promastigotes LmGLUT1 that are glucose transport deficient and complemented with the human glucose transporter GLUT1. Activity is measured by DNA content using SYBR green in vitro; type: functional
Express it in %; write the number only.

Bench note: what inhibition did `COc1cccc(CN2CCCN(Cc3cccc(NC(=O)c4cc5ccccc5s4)c3)CC2)c1` show? 3.41

====

target: Glucose transporter (Leishmania mexicana); assay: ST_JUDE_LEISH: Cytotoxicity at 2uM final concentration against transgenic Leishmania Mexicana promastigotes LmGT2 that are glucose transport deficient and complemented with the L. Mexicana glucose transporter 2. Activity is measured by DNA content using SYBR green in vitro; assay type: functional
Classify by measured inhibition: 1 if it is equal to or exceeds 5%, -1 if it is smaller.

CCOC(=O)NCC(=O)Nc1cccc(-c2cccc(-c3nc4cc(C(F)(F)F)ccc4[nH]3)c2)c1 | 1
Cc1[nH]cc(Br)c(=O)c1-c1ccc(Oc2ccc(OC(F)(F)F)cc2)cc1 | -1
Cc1cc(=NN=Cc2ccccc2F)c2cccc(C)c2[nH]1 | -1

Hello, I need to know if `COc1cc2nc(NCCn3ccnc3C)nc(NCCc3ccccc3)c2cc1OC` has measured inhibition not below 5%. Thanks! -1

Hello, I need to know if `O=C(/C=C/c1ccc(Cl)c(Cl)c1)NCCCCCCN1CCCN(C(=O)Nc2ccc(C(F)(F)F)cc2)CC1` has measured inhibition not below 5%. Thanks! -1

Hello, I need to know if `Clc1cccc(CNC2CCN(CC3CCCCC3)CC2)c1` has measured inhibition not below 5%. Thanks! 1

====

molecular target: Solute carrier family 2, facilitated glucose transporter member 1 (Homo sapiens); test: ST_JUDE_LEISH: Cytotoxicity at 2uM final concentration against transgenic Leishmania Mexicana promastigotes LmGLUT1 that are glucose transport deficient and complemented with the human glucose transporter GLUT1. Activity is measured by DNA content using SYBR green in vitro; format: functional
MEASURE: inhibition (%)
Express it in %; write the number only.

Here are 5 compounds together with their reported answers.
Cc1cccc(C(O)CNc2ccnc(Nc3cccc(-c4csc(C)n4)c3)n2)c1 (stereo not given) | 3.68
O=S(=O)(Nc1ccc2nccc(N3CCNCC3)c2c1)c1ccc2oc3ccccc3c2c1 | 4.08
CC(=O)c1c(Cc2ccccc2Cl)c[nH]c1C | 4.46
CCCCc1ccc(-c2nc(NC(=O)Nc3[nH]c(-c4ccccc4)nc3C(=O)OCC)c(C(=O)OCC)[nH]2)cc1 | 3.65
Cc1ccccc1C1CCN(C2CCC(NC(=O)/C=C/c3cc(C(F)(F)F)ccc3F)CC2)CC1 (stereo not given) | 2.67

Bench note: what inhibition did `COc1ccccc1/C=C/C(=O)N(C)C1CCN(CCCCCNC(=O)/C=C/c2ccc(Cl)c(Cl)c2)CC1` show? 4.19

Bench note: what inhibition did `CC1(C)CCCN(C(=O)c2cccc(-n3nc(-c4ccc(Cl)cc4)cc3N)c2)C1` show? 2.79

Bench note: what inhibition did `COc1cccc(Nc2nc(Nc3cccc(C#N)c3)cc(C(F)(F)F)n2)c1` show? 6.5

Bench note: what inhibition did `O=C(N[C@H]1CCN(Cc2ccc(OCCCN3CCCCC3)cc2)C1)c1cc(Cl)cc(Cl)c1` show? 1.71

Bench note: what inhibition did `CCNc1cc(CC)nc(Nc2ccc(C)cc2)n1` show? 33.4

Bench note: what inhibition did `FC(F)(F)c1ccc2[nH]c(-c3ccc(-c4ccc(CN5CCN(c6cnccn6)CC5)cc4)s3)nc2c1` show? 2.24

Where do the numbers come from? From ChEMBL document CHEMBL3433997.
